Where do the numbers come from? From patent US6495580B1.

System: normal cells
method: MTT cytotoxicity assay
Assay type: cell-based
test_settings: highest compound concentration giving optical density ≧75% of control, 68 hours incubation
measured_property: CC75 (µM)

>>> measured_value("Cc1nnnn1/N=C/c1ccc(O)c(C(c2ccc(O)cc2)c2cc(/C=N/n3nnnc3C)ccc2O)c1")
3.1
>>> measured_value("NC(=O)c1ncn([C@@H]2O[C@H](CO)[C@@H](O)[C@H]2O)n1 [Ribavirin, reference compound]")
9.4
>>> measured_value("Nc1nnnn1N=Cc1ccc(O)c(Cc2cc(C=Nn3nnnc3N)ccc2O)c1")
9.4
